Please go through the items and note down their GI50.
system: IGROV1 ovarian; assay: NCI tumour cell line growth inhibition, 48 h

Answered cases to consult:
COMPOUND	GI50
C/C(=N\n1c(N)c(C#N)c(-c2ccc(Cl)cc2)c(C#N)c1=O)c1cccnc1	> 100 µM
COc1ccccc1OCC(O)CO (stereo not drawn)	> 100 µM

Shifting focus to the compound that follows.
Q: Give its GI50 value. Item: `CCOc1ccc(N2C(N)=NC(N)=NC2(C)C)cc1`
Result: 46.5 µM

###

test system: SF-268 CNS; assay: NCI tumour cell line growth inhibition, 48 h
OBSERVATION TYPE: TGI

Answered cases to consult:
COMPOUND	TESTED TARGET	RESULT
CC(C)(C)OC(=O)N[C@@H](Cc1ccccc1)C(=O)N1CC[C@@H](C(=O)N2[C@H]3CC4CC[C@@]3(CS2(=O)=O)C4(C)C)N1	SF-268 CNS	> 100 µM
CCCNC(=O)Cn1c(-c2ccccc2)cc2ccccc21	SF-268 CNS	> 100 µM
NC(=O)Nc1n[nH]c(-c2ccccc2)n1	SF-268 CNS	> 100 µM

Look at each compound and report its TGI.
1. Cc1ccc(N=Nc2cc(=O)[nH]c(=O)[nH]2)cc1C
2. Clc1cccc(C2SCc3nc4ccccc4n32)c1Cl (stereo unspecified)
3. N#Cc1nc(Cc2cccs2)oc1N

Result:
1. 42.6 µM
2. 36.5 µM
3. > 100 µM

This collection of values is drawn from PubChem BioAssay (NCI).
